Test system: MCC-13
Experiment: qHTS assay to identify novel small-molecules to repurpose for Merkel cell carcinoma treatment (AID 1296009); also: nearly all actives have a fitted effect of over 60% in size; also: potency is read from the fitted curve at half-maximal effect
Details: MCC and control cell lines, CellTiter-Glo viability, 72 h; series mostly up to 46 µM
Description: MCC is a rare and aggressive neuroendocrine skin cancer with limited treatment options. Approximately 80% of MCCs have the Merkel cell polyomavirus (MCPyV) DNA integrated into the host genome (virus-positive: VP-MCC) and viral oncogenes drive oncogenesis. The remaining MCCs are virus-negative (VN-MCC) and are caused by UV mutagenesis. […] Using cell viability as a readout (CellTiter-Glo assay) we found both overlapping and distinct drugs that can be repurposed for the treatment of VP-MCC and VN-MCC. […]
Results filed as inconclusive are left out. Calls of active or inactive are those of the source. Calls follow the shape of the dose curve; as a rule, active = well fitted inhibition curve with a large enough effect; inconclusive = small, poorly fitted or top-dose-only effect; inactive = flat fitted curve, though single readings scatter.
ASSAY READOUT: Potency

[
  {
    "COMPOUND": "Cc1cc(OCCCS(C)(=O)=O)cc(C)c1-c1cccc(COc2ccc3c(c2)OC[C@H]3CC(=O)O)c1",
    "ASSAY READOUT": "Potency",
    "MEASUREMENT": "inactive"
  },
  {
    "COMPOUND": "COc1ccnc(CS(=O)c2nc3ccc(OC(F)F)cc3[nH]2)c1OC (stereo not given)",
    "ASSAY READOUT": "Potency",
    "MEASUREMENT": "inactive"
  },
  {
    "COMPOUND": "NS(=O)(=O)c1ccc(Nc2nc(OCC3CCCCC3)c3[nH]cnc3n2)cc1",
    "ASSAY READOUT": "Potency",
    "MEASUREMENT": "inactive"
  },
  {
    "COMPOUND": "CON(C)C(=O)N1N=C(c2cc(F)ccc2F)S[C@]1(CCCN)c1ccccc1",
    "ASSAY READOUT": "Potency",
    "MEASUREMENT": "9.3 nM (active)"
  }
]

Attention now turns to another entry.
Q: Could you share which Potency value was measured for "Oc1cc(O)cc(C=Cc2ccc(O)c(O)c2)c1" ?
Ans: inactive
